Tested on: DeltatarO mutant
assay-summary: S. aureus survival, RN4220 and DeltatarO strains – OD600, teichoic acid synthesis inhibitors, primary screen (AID 463173)
condition-parameters: S. aureus RN4220 wild type/DeltatarO growth, OD600, 18 h, stronger effect = lower value, screened at 18.75 µg/mL (by protocol)
Hit rate of the full screen: of about 52,000 compounds, about 4,300 (8.3%) were called active. The full list was thinned out, with actives kept by preference.
Label class 1 when survival < 80%; otherwise class 0.

Below, 5 compounds whose answers are already recorded.
>>> print(df.to_string())
                                   compound  classification
0  CC1CCC2(CC1)Nc1ccccc1S2 (stereo unspecified)         class 0
1  COc1ccc(Cn2cc(C(=O)c3ccc(C)cc3)c(=O)c3cc(OC)c(OC)cc32)cc1         class 0
2  CCOc1ccc2c(c1)c(=O)c(C(=O)c1ccc3c(c1)OCO3)cn2Cc1ccc(F)cc1         class 0
3  O=C(NCC1CCCO1)C1CC(c2ccccc2O)=NO1 (stereo unspecified)         class 0
4  Cc1ccc(CN(C(=O)COc2ccc([N+](=O)[O-])cc2)c2ccccn2)o1         class 1

Task: Lab note: survival threshold 80%. Does this compound come in strictly under it? Cc1ccc(CN(C(=O)COc2ccccc2[N+](=O)[O-])c2ccccn2)cc1
Output: class 1

Task: Lab note: survival threshold 80%. Does this compound come in strictly under it? Cc1ccc(NS(=O)(=O)c2c(C)nc3sc(C)cn3c2=O)c(C)c1
Output: class 0

Task: Lab note: survival threshold 80%. Does this compound come in strictly under it? COC(=O)NCc1c(C)nn(-c2ccccc2)c1-n1cccc1
Output: class 0

Task: Lab note: survival threshold 80%. Does this compound come in strictly under it? CCc1ccc(C(=O)c2cn(CC(=O)Nc3ccc4c(c3)OCCO4)c3ccc(C)cc3c2=O)cc1
Output: class 1

Task: Lab note: survival threshold 80%. Does this compound come in strictly under it? COc1ccc(Cn2cc(C(=O)c3ccc(F)cc3)c(=O)c3cc4c(cc32)OCCO4)cc1
Output: class 1
